Taken from PubChem BioAssay (NCI).

# reported TGI; entries follow
# Test system: OVCAR-3 ovarian
# Experimental Details: NCI tumour cell line growth inhibition, 48 h
Endpoint Name: TGI

1) COC(=O)CCCN(C)c1n[nH]c(N)n1 = > 100 µM
2) Cc1ccc(Cl)c2c(=O)c3ccc([N+](=O)[O-])cc3sc12 = > 100 µM
3) C=CCc1cc(-c2cc(CC=C)c(O)c(CN(CCCl)CCCl)c2)cc(CN(CCCl)CCCl)c1O = 36.2 µM
4) COc1cccc2c1CCc1ccccc1CC2=O = > 100 µM
5) CC1C(=O)OC2CC[N+]3(CC(=O)c4ccc(Br)cc4)CC=C(COC(=O)C(C)(O)C1(C)O)C23 (stereo not given) = > 375 µM
6) O=c1[nH]c(Nc2ccc(F)c(Cl)c2)nc2nc[nH]c12 = > 100 µM
7) CCOC(=O)C12CCCC1(O)N(NC(=O)c1ccccc1)C(C)=C2C(=O)OC (stereo not given) = > 100 µM
8) C=C1C(=O)O[C@@H]2[C@H]1C[C@@H](O)[C@H](C)[C@@](O)(C(=O)/C=C/C)[C@H]2OC(=O)C(C)CC (stereo not given in full) = 10.4 µM
9) COc1ccc(N(CC(=O)NCCC[Te]c2ccccc2)C(=O)c2ccccc2)cc1 = 19.8 µM
10) O=C1CC(c2ccc(N3CCOCC3)cc2)(c2ccsc2)NC(=O)C1Sc1ccccc1Cl (stereo not given) = > 100 µM

----------
# reported GI50; entries follow
# Test system: NCI-H522 lung
# Experimental Details: NCI tumour cell line growth inhibition, 48 h
Endpoint Name: GI50

1. CC1=C[C@H]2c3c(c(O)c(O)c4oc5c(C)cccc5c(=O)c34)[C@H](c3cc(O)c(O)c4oc5c(C)cccc5c(=O)c34)[C@H]2C(C)(C)C1 = 1970 nM
2. CCC[CH2][Sn]1([CH2]CCC)[O]C(=O)c2cc(I)cc(I)c2[O]1 = 143 nM
3. CC(=O)[CH-]C(=O)c1ccccc1.CC(=O)[CH-]C(=O)c1ccccc1.CC[O-].CC[O-].[Zr+4] = > 100000 nM
4. CN(C)c1ccc(N2Cc3ccccc3OC3=C2C(=O)c2c(O)ccc(O)c2C3=O)cn1 = 53.5 nM
5. Cc1cc2c(cc1Cl)SC1=CC(=O)N(c3ccccc3)C1=NS2(=O)=O = 67100 nM
6. O=C(Nc1ccccc1O)c1cccc(NC2=C(Cl)C(=O)N(Cc3ccccc3)C2=O)c1 = 9020 nM
7. COc1ccc(N(CC(=O)NCCC[Te]c2ccccc2)C(=O)c2ccccc2)cc1 = 3100 nM
8. C/C=C(\C)C(=O)N[C@H]1CC[C@]2(C)C3CC[C@@]4(C)C(CC[C@@H]4C(C)N(C)C)C3CCC2[C@H]1OC(C)=O (stereo partly drawn) = 2140 nM

----------
# System: COLO 205 colon
# Experimental Details: NCI tumour cell line growth inhibition, 48 h
Endpoint Name: GI50

1. CCCN(CCC)C(=O)C1=Cc2ccc(-c3ccc(C(=O)N4CCCC4)cc3)cc2N=C(N)C1 = 4.26 µM
2. CC1=C(C(=O)Nc2ccc(F)c(Cl)c2)C(c2ccccc2Cl)NC(=S)N1 (stereo not drawn) = 23.9 µM
3. O=C(Nc1ccccc1O)c1cccc(NC2=C(Cl)C(=O)N(Cc3ccccc3)C2=O)c1 = 13.2 µM
4. COc1ccc2c(c1)c(-c1ccc(-c3cn(S(=O)(=O)c4ccccc4)c4ccc(OC)cc34)s1)cn2S(=O)(=O)c1ccccc1 = > 100 µM
5. CCC[CH2][Sn]1([CH2]CCC)[O]C(=O)c2cc(I)cc(I)c2[O]1 = 0.702 µM
6. O=c1cc(-c2cccc(C(F)(F)F)c2)[nH]c2cc3c(cc12)OCO3 = 5.1 µM
7. COc1cc(C(=O)c2ccc3c(c2)OCO3)cc(OC)c1OC = 1.37 µM
8. Oc1ccc(-c2nnc3sc(-c4ccc(F)c(Oc5ccccc5)c4)nn23)cc1 = 96 µM
9. c1ccc(Cn2cc3c(c2-c2ccccc2)CCc2cnoc2-3)cc1 = 2.9 µM
10. CC(C)=CCC[C@H](C)[C@@H]1CC[C@]2(C)C3CC[C@]4(OC4(C)C)C(CCCO)[C@]3(C)CC[C@@]12C (stereo partly drawn) = 31.5 µM
11. CCN(CC)CCCC(C)Nc1cnc(C(=O)Nc2ccc(Cl)c3cccnc23)cn1 (stereo not drawn) = 1.58 µM
12. COc1ccccc1OCC(=O)Nc1sc2c(c1C(N)=O)CCC2 = > 100 µM
13. COC(=O)Nc1nc2ccc(Oc3ccc(NC(=O)Nc4cccc(C(=O)O)c4)cc3)cc2[nH]1 = 6.21 µM

----------
# System: BT-549 breast
# Experimental Details: NCI tumour cell line growth inhibition, 48 h
Endpoint Name: TGI (µM)

1. COc1cc2nc3sc(C(=O)Nc4ccc(C(=O)OC(C)C)cc4)c(C(=O)Nc4ccc(Cl)cc4C)n3c(=O)c2cc1OC = 20
2. CCOC(=O)c1c(N)nn2c1cc1cccccc12 = 65.2

----------
# System: MDA-MB-231 breast
# Experimental Details: NCI tumour cell line growth inhibition, 48 h
Endpoint Name: TGI

1. N#C/C(=C\c1ccc(-c2ccc(Cl)cc2)o1)C(=O)Nc1ncc(Cc2ccc(Cl)cc2)s1 = 4.4 µM
2. N#Cc1c(-c2ccc(Cl)cc2)cc(-c2ccc(Nc3ccnc4cc(C(F)(F)F)ccc34)cc2)[nH]c1=O = 65.8 µM
3. C[C@H]1O[C@@H](c2c(O)ccc3ccccc23)C[C@@H](N(C)C)C1O (some centres undefined) = > 100 µM
4. O=c1c2cccc(Cl)c2sc2c(NCCCNCCO)nc3ccccc3c12 = 3.54 µM
5. COC(OC)C1OC(CO)C(n2cc(C)c(=O)[nH]c2=O)C1O (centres undefined) = > 100 µM
6. CC1CN=C(Nc2ccc(F)cc2F)S1 (centres undefined) = > 100 µM
7. CSC1=C(C(=O)Nc2ccc(Cl)cc2)C(N)=NC1=O = > 100 µM
8. CCN(CC)CCCC(C)Nc1cnc(C(=O)Nc2ccc(Cl)c3cccnc23)cn1 (centres undefined) = 3.76 µM
9. O=C(Nc1cc(C(=O)Nc2cccc(S(=O)(=O)O)c2)cc(C(=O)Nc2cccc(S(=O)(=O)O)c2)c1)c1cccc(C(=O)Nc2cc(C(=O)Nc3cccc(S(=O)(=O)O)c3)cc(C(=O)Nc3cccc(S(=O)(=O)O)c3)c2)c1 = > 100 µM

----------
# Tested on: SF-539 CNS
# Experimental Details: NCI tumour cell line growth inhibition, 48 h
Endpoint Name: GI50

1. COc1cc(-c2nc(Nc3nc4ccccc4[nH]3)nc(N)c2C#N)cc(OC)c1OC = 10.7 µM
2. C[n+]1c(/C=C\c2ccc(Cl)cc2)ccc2ccccc21 = 15.9 µM
3. C=C1C(=O)O[C@H]2[C@H]1CC/C(COC(=O)CCCCC(=O)OC/C1=C/CC[C@@]3(C)O[C@H]3[C@H]3OC(=O)C(=C)[C@@H]3CC1)=C\CC[C@@]1(C)O[C@@H]21 = 2.01 µM
4. CCC(C)(C)C(=O)O[C@H]1C[C@@H](C)C=C2C=C[C@H](C)[C@H](CC[C@@H]3C[C@@H](O)CC(=O)O3)[C@H]21 = 11.3 µM

----------
# System: SF-539 CNS
# Experimental Details: NCI tumour cell line growth inhibition, 48 h
# reported TGI; entries follow
Endpoint Name: TGI (µM)

1. COc1ccc(N2C(=O)C3c4[nH]c5ccc(OC)cc5c4C4CCC(C(C)(C)C)CC4C3C2=O)cc1 (stereo not given) = 55.1
2. COc1c(Cl)c2c(c(OC)c1OC)-c1ccc(OC)c(=O)c(Cl)c1C(NC(C)=O)CC2 (stereo not given) = 0.444
3. C=C1C(=O)O[C@H]2[C@H]1CC/C(COC(=O)CCCCC(=O)OC/C1=C/CC[C@@]3(C)O[C@H]3[C@H]3OC(=O)C(=C)[C@@H]3CC1)=C\CC[C@@]1(C)O[C@@H]21 = 4.96
4. c1ccc(Cn2cc3c(c2-c2ccccc2)CCc2cnoc2-3)cc1 = 38.9
5. CCN(CC)CCCC(C)Nc1cnc(C(=O)Nc2ccc(Cl)c3cccnc23)cn1 (stereo not given) = 3.12

----------
# reported GI50; entries follow
# System: HL-60(TB) leukemia
# Experimental Details: NCI tumour cell line growth inhibition, 48 h
Endpoint Name: GI50

1. C1=Cc2ccccc2Nc2ccccc21 = > 100 µM
2. CC1CC2(C)ON=C(c3ccccc3)N2c2ccccc2S1 (centres undefined) = 23.5 µM
3. O=C1NN(c2ccc(C(=O)O)cc2)C(=O)/C1=C\c1ccc([N+](=O)[O-])o1 = 34.5 µM
4. c1ccc(Cn2cc3c(c2-c2ccccc2)CCc2cnoc2-3)cc1 = 1.75 µM

----------
# Tested on: CAKI-1 renal
# Experimental Details: NCI tumour cell line growth inhibition, 48 h
Endpoint Name: TGI

1) COc1ccccc1C1SCC(=O)N1c1ccc(-n2c(-c3ccccc3)nc3ccccc3c2=O)cc1 (stereo not given) = > 100 µM
2) CC1C(=O)OC2CC[N+]3(CC(=O)c4ccc(Br)cc4)CC=C(COC(=O)C(C)(O)C1(C)O)C23 (stereo not given) = > 375 µM
3) O=C1CCCCC/C1=C\c1ccc(F)cc1 = > 100 µM
4) CC[C@H](C)[C@H]1NC(=O)[C@@H](N[C@](C)(O)[C@@H](N)CC(C)C)[C@@H](C)OC(=O)[C@H](Cc2ccc(OC)cc2)N(C)C(=O)[C@@H]2CCCN2C(=O)[C@H](CC(C)C)NC(=O)[C@@H](C)C(=O)[C@H](C(C)C)OC(=O)C[C@@H]1O = 2.59 µM
5) CCOC(=O)c1cc2c(ccc3cc(C(=O)OCC)[nH]c32)[nH]1 = > 100 µM
6) N#Cc1c(-c2ccc(Cl)cc2)cc(-c2ccc(Nc3ccnc4cc(C(F)(F)F)ccc34)cc2)[nH]c1=O = > 64.3 µM
7) Cc1c(Cl)ccc2c1NC(=O)C2(O)C(C(=O)c1ccccc1)c1ccccc1 (stereo not given) = > 100 µM
8) COc1c(Cl)c2c(c(OC)c1OC)-c1ccc(OC)c(=O)c(Cl)c1C(NC(C)=O)CC2 (stereo not given) = > 100 µM
9) CCOC(=O)c1c(N)nn2c1cc1cccccc12 = > 100 µM
10) CCOP(C)(=O)C(Cc1c[nH]c2ccccc12)C(=O)O (stereo not given) = > 100 µM
